# Lookup of reported z-score keyed by entry
experiment: qHTS for identification of novel therapeutic agents for treatment of microphthalmiaassociated transcription factor (MiT) renal cell carcinoma (RCC) (AID 1963991); details: TFE3-RCC viability, CellTiter-Glo, 48 h; measured here: UOK145 Z-AUC; stronger effect = lower value;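 note: curves scaled with 100% = DMSO viability and 0% = empty wells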
Inconclusive results are not listed.
Note: the reply should be a number with no unit written.

Consider the worked cases shown below.
CC(C)(O)C=CC(=O)[C@](C)(O)[C@H]1[C@H](O)C[C@]2(C)[C@@H]3CC=C4[C@@H](C=C(O)C(=O)C4(C)C)[C@]3(C)C(=O)C[C@@]12C = -2.28
COC1=CC(C)=C[C@@H](C)[C@@H](O)[C@@H](C)CC(C)=CC=C[C@H](OC)[C@H]([C@@H](C)[C@@H](O)[C@H](C)[C@@]2(O)C[C@@H](O)[C@H](C)[C@@H](C(C)C)O2)OC1=O = -3.22

Next:
Exercise: Entry under review: CC(=CCCC1=CCC(C2=CC(=O)OC2O)OC1O)CCC1=C(C)CCCC1(C)C (stereo not drawn) . Reported z-score?
Solution: -0.0671

---

test system: CP250; test: qHTS profiling for inhibitors of Plasmodium falciparum proliferation (AID 504749); note: nearly all actives have a fitted effect of over 60% in size; settings: P. falciparum in erythrocytes, SYBR Green DNA, 72 h; series mostly up to 28.7 µM
Results filed as inconclusive are left out. The source made the active and inactive calls. Calls come from the whole dose curve; as a rule, active = well fitted inhibition curve with a large enough effect; inconclusive = small, poorly fitted or top-dose-only effect; inactive = flat fitted curve, though single readings scatter.
API: response.call in active, inactive

CCCCCCCCCC(CC)c1ccc(S(=O)(=O)O)cc1 (stereo unspecified) = inactive
C=CCN1CC[C@]23CCCCC2[C@H]1Cc1ccc(O)cc13 (stereo partly specified) = inactive
C#CC1(O)CCC2C3CCC4=CC(=O)CCC4(C)C3CCC21C (stereo unspecified) = inactive

Exercise: So what was the verdict on `CCCCc1ccc(C(=O)O)nc1` in this test?
Solution: inactive

Exercise: Field entry: `O=C(O)COc1ccccc1`
Solution: inactive

Exercise: Field entry: `COC(=O)[C@@H](N)CCCN=C(N)N[N+](=O)[O-]`
Solution: inactive

Exercise: Field entry: `CN(C)[C@@H]1C(=O)C(C(N)=O)=C(O)[C@@]2(O)C(=O)C3=C(O)c4c(O)cccc4[C@@](C)(O)[C@H]3[C@H](O)[C@@H]12`
Solution: inactive

Exercise: Field entry: `Cc1ccc(Cl)c(O)c1`
Solution: inactive

Exercise: Field entry: `CCCN1CCC[C@H](c2cccc(O)c2)C1`
Solution: inactive

Exercise: Field entry: `CCCCCCCCCCCCCCCC[N+](C)(C)C`
Solution: active

Exercise: Field entry: c1ccc(C2(c3ccccc3)CC2C2=NCCN2)cc1 (stereo unspecified)
Solution: inactive

---

assay: qHTS of pediatric cancer cell lines to identify multiple opportunities for drug repurposing: Confirmatory screen for A673 cells (AID 1347110); conditions: A673 Ewing sarcoma cell viability; series mostly up to 45.9 µM;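 note: potency is the fitted concentration of half-maximal effect; cells exposed to compound for 48 h before the viability read; nearly all actives have a fitted effect of over 65% in size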
Results filed as inconclusive are left out. Calls of active or inactive are those of the source. Calls follow the shape of the dose curve; as a rule, active = well fitted cell-killing curve with a large enough effect; inconclusive = small, poorly fitted or top-dose-only effect; inactive = flat fitted curve, though single readings scatter.
assay_metric: Potency

Consider the worked cases shown below.
O=C1C(I)=CC(=C(c2cc(I)c(O)c(I)c2)c2ccccc2C(=O)O)C=C1I = 3.69 µM (active)
O=C(N[C@H]1CN2CCC1CC2)c1ccc(Cl)cc1 = 1.65 µM (active)
S=C(SSC(=S)N1CCCCC1)N1CCCCC1 = 10.4 µM (active)
C[C@@H]1O[C@@H](O[C@@H]2C=C3CC[C@@H]4[C@@H](CC[C@]5(C)[C@H](c6ccc(=O)oc6)CC[C@@]45O)[C@@]3(C)CC2)[C@H](O)[C@H](O)[C@H]1O = 0.0522 µM (active)
CO[C@H]1CCC(O[C@H]2C[C@H]([C@]3(C)CC[C@]4(C[C@H](O)[C@@H](C)[C@@H]([C@@H](C)C=C(C)C(=O)[C@H](C)C[C@H](C)C(=O)O)O4)O3)O[C@]3(O[C@@H]([C@H]4O[C@@](O)(CO)[C@H](C)C[C@H]4C)C[C@H]3C)[C@H]2C)O[C@H]1C (some centres not stated) = 1.85 µM (active)

Exercise: Entry under review: `CCCCCC[C@H]1C(=O)O[C@H](C)[C@H](NC(=O)c2cccc(NC=O)c2O)C(=O)O[C@@H](C)[C@@H]1OC(=O)CC(C)C` . Reported Potency?
Solution: 13.1 µM (active)

Exercise: Field entry: `CC[C@@]1(O)C(=O)OCc2c1cc1n(c2=O)Cc2cc3ccccc3nc2-1`
Solution: 0.0465 µM (active)
